# target-under-test: HLA-A*01:01 (Homo sapiens, UniProt P04439, A114D/A174V/A182V/D101N/D185E/E176A/E190D/L180R/Q94H/R68K/S129P/T187R/V100A/V91M/W191G)
# protocol-summary: MHC binding assay: UV-ligand exchange, ELISA of stabilized MHC complexes (peptide exchange yield)
# test-settings: binding to HLA-A*01:01, UV-ligand exchange
# Description: Candidate peptides for T cell based therapies according to the present invention were further tested for their MHC binding capacity (affinity). The individual peptide-MHC complexes were produced by UV-ligand exchange, where a UV-sensitive peptide is cleaved upon UV-irradiation and exchanged with the peptide of interest as analyzed. Only peptide candidates that can effectively bind and stabilize the peptide-receptive MHC molecules prevent dissociation of the MHC complexes. […]
assay-endpoint: Peptide exchange

Query: Peptide exchange; subject: 386 (NSALNPLLY; listed as Homo sapiens) [compound 386] ++++ (>75% = ++++)

Query: Peptide exchange; subject: 311 (TVTDGTHTDFY; listed as Homo sapiens) [compound 311] ++ (>20% = ++)

Query: Peptide exchange; subject: 42 (ASDVDTLLK; listed as Homo sapiens) [compound 42] +++ (>50 = +++)

Query: Peptide exchange; subject: 395 (ILKGGSGTY; listed as Homo sapiens) [compound 395] ++ (>20% = ++)

Query: Peptide exchange; subject: 43 (ETEPERHLGSY; listed as Homo sapiens) [compound 43] +++ (>50 = +++)

Query: Peptide exchange; subject: 372 (SRSDFEWVY; listed as Homo sapiens) [compound 372] ++ (>20% = ++)

Query: Peptide exchange; subject: 111 (TPIPFDKILY; listed as Homo sapiens) [compound 111] ++ (>20% = ++)

Query: Peptide exchange; subject: 351 (VLDPMLDFY; listed as Homo sapiens) [compound 351] ++++ (>75% = ++++)

Query: Peptide exchange; subject: 210 (LLEADPFLKY; listed as Homo sapiens) [compound 210] ++++ (>75% = ++++)

Query: Peptide exchange; subject: 312 (VTDGINPLI; listed as Homo sapiens) [compound 312] ++ (>20% = ++)

Others:
Query: Peptide exchange; subject: 335 (PSSMPECLSYY; listed as Homo sapiens) [compound 335] +++ (>50 = +++)

Query: Peptide exchange; subject: 168 (VQPGETYTY; listed as Homo sapiens) [compound 168] +++ (>50 = +++)

Query: Peptide exchange; subject: 58 (YLENSASWY; listed as Homo sapiens) [compound 58] ++++ (>75% = ++++)
